Recorded measurements of pSTAT3 MFI, CD8 T cells, 0.001 nM (unstimulated 1446), one per entry
- System Name: T1, IL10Rα/IL2Rγ receptor (human, UniProt Q13651 22-578; P31785 23-369)
- T1 sequence (looked up) 1: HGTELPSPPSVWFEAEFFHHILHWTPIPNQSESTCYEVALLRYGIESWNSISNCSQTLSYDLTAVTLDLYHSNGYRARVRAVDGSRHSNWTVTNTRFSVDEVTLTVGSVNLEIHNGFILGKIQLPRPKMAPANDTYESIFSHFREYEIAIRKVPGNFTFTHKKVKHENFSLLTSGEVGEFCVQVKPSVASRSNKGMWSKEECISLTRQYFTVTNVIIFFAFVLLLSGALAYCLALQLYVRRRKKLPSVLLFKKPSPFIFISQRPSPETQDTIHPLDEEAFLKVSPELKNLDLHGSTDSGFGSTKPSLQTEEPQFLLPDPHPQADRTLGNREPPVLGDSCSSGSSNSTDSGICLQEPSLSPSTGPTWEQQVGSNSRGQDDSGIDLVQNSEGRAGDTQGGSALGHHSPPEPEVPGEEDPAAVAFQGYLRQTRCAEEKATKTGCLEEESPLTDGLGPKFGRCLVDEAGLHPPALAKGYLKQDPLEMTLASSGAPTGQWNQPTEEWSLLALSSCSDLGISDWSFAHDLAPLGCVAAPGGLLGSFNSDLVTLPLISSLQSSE
- T1 sequence (looked up) 2: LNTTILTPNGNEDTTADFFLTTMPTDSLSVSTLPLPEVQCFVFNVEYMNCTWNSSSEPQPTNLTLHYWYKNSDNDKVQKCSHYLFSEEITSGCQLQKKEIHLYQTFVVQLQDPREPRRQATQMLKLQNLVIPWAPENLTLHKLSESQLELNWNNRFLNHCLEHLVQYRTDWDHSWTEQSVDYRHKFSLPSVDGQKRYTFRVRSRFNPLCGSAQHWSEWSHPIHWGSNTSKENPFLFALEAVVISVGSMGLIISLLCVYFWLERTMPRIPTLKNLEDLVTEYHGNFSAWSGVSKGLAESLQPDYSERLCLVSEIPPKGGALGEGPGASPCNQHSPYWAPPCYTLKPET
- Test Name: cell-based or functional assay
Observable: pSTAT3 MFI, CD8 T cells, 0.001 nM (unstimulated 1446) (MFI)

- Binder: "DR395(DR229-DR239) (bispecific antibody) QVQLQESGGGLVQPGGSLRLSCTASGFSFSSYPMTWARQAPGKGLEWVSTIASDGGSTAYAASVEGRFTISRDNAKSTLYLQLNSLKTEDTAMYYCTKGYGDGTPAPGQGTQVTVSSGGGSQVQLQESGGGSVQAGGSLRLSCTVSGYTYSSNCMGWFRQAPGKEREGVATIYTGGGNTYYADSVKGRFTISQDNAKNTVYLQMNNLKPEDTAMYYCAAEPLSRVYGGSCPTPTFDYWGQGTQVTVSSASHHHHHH"
  Unit Of Measurement: "MFI"
  Numeric Result: 1420
- Binder: "DR441(DR236-DR231) (bispecific antibody) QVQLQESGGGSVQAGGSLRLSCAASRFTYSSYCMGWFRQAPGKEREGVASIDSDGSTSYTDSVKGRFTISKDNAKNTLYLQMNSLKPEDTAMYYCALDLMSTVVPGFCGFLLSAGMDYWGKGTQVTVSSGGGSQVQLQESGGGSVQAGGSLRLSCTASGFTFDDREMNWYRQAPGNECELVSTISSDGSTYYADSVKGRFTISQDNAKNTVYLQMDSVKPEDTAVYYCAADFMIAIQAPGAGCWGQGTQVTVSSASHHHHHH"
  Unit Of Measurement: "MFI"
  Numeric Result: 1410
- Binder: "DR471(DR241-DR231) (bispecific antibody) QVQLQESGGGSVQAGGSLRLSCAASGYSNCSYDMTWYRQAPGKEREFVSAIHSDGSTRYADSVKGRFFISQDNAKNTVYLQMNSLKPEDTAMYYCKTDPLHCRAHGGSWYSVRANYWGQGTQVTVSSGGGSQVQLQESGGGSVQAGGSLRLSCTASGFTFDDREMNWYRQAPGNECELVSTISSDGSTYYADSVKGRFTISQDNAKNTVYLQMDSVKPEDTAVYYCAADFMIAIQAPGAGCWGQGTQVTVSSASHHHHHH"
  Unit Of Measurement: "MFI"
  Numeric Result: 1420
- Binder: "DR465(DR240-DR231) (bispecific antibody) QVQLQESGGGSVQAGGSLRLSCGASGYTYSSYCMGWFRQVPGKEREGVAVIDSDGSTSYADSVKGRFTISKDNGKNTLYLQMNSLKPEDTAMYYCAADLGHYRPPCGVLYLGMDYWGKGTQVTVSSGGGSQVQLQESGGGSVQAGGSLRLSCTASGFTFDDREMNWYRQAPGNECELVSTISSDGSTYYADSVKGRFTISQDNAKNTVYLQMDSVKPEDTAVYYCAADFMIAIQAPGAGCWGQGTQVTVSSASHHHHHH"
  Unit Of Measurement: "MFI"
  Numeric Result: 1370
